Catalogue of TGI values
system: HCT-116 colon; assay: NCI tumour cell line growth inhibition, 48 h

molecule="CC(C)(C)c1ccc(S(=O)(=O)N2C(c3cccc(C4CC[C@@H](C(=O)O)N4S(=O)(=O)c4ccc(C(C)(C)C)cc4)c3)CC[C@H]2C(=O)O)cc1 (some centres not stated)" endpoint_label=TGI result="> 100 µM"
molecule="CC(=O)OC1CC(OC2C(O)CC(OC3C(O)CC(OC4CCC5(C)C(CCC6C5CCC5(C)C(C7=CC(=O)OC7)C(O)CC65O)C4)OC3C)OC2C)OC(C)C1OC1OC(CO)C(O)C(O)C1O (configuration not stated)" endpoint_label=TGI result="0.91 µM"
molecule="COc1ccc(C(CC(C)=O)c2c(O)c3ccccc3oc2=O)cc1OC (configuration not stated)" endpoint_label=TGI result="> 100 µM"

State its TGI on HCT-116 colon: COc1cc(C2CC(c3cccc(Nc4ccnc5cc(Cl)ccc45)c3)=NN2C=O)cc(OC)c1OC (configuration not stated) 1.64 µM

State its TGI on HCT-116 colon: CCOC(=O)Nc1cc(NC(/C=N/NC(C)=O)C(=O)OCC)c(OC)cc1NC(C)=O (configuration not stated) > 100 µM

State its TGI on HCT-116 colon: `O=C(O)CCN1CCN(CCC(=O)O)CCN(CCC(=O)O)CC1` > 100 µM

State its TGI on HCT-116 colon: `COc1ccn(CC(=O)c2cc3ccccc3[nH]2)c(=O)n1` > 100 µM

State its TGI on HCT-116 colon: `COc1ccc(-c2nc(N)n(C)c2SSc2c(-c3ccc(OC)cc3)nc(N)n2C)cc1` 7.49 µM

State its TGI on HCT-116 colon: `CC(C)(Oc1ccc(Cl)cc1)C(=O)N(C(=O)N1CCN(c2ccccc2)CC1)c1ccccc1` > 100 µM
